The measurements presented in this section are drawn from the supplement of paper PMC6555819.

test system: PPARg:RXRa 270nM:90nM, anti-RXR (NR concentration 270 nM, RXRa partner concentration 90 nM); assay: PBM binding z-score (relative to random genomic background probes); higher = stronger binding; sequences stand for … in GC…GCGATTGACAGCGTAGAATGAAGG
measured-metric: PBM binding z-score

## Task Fill in: PBM binding z-score of "ATATGTTGGTTAAGGGTCATTCAGGTTGGTTCGC" is ___
## Result 7.58

## Task Fill in the blank: the reported PBM binding z-score of "TAGCCTAGGTCATGGGTCAGTATACCACGCGAAC" is ____.
## Result 5.95

## Task Any idea what PBM binding z-score was measured for "GCTTACGGGTCAAATGTTATAGCATGAATAGAAT" ?
## Result 6.08

New cases:
## Task For "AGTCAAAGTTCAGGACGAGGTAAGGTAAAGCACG" , what is its reported PBM binding z-score?
## Result 5.12

## Task I'd like to know its PBM binding z-score. The sequence in question is "TCACATAGGTAAAGGTGAAAGTCGAACGATATGA"
## Result 3.48

## Task If you can, please state the reported PBM binding z-score value of "CGAACTAGGTCATTGACAGGACAGTGAGTAGTAA" .
## Result 6.03

---

# PBM binding z-score values compiled below
system: RXRa DBDmut IVT, anti-RXR (DBD mutation: RXRa K156A/R161A, NR concentration 90 nM); experiment: PBM binding z-score (relative to random genomic background probes); higher = stronger binding; sequences stand for … in GC…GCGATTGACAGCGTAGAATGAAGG

Completed entries (count: 3):
## Task I have this sequence here, "AGAACGAGGCCACGCTGAGTTGATAGCAGAGTAG" , and I need its recorded PBM binding z-score.
## Result 0.267

## Task Which PBM binding z-score is reported for this sequence? "CCTTACTGGTCACTCCAGGTTATAGCATCGGAGT"
## Result 0.271

## Task Which PBM binding z-score value belongs to "TCTAGATGGTCACGGAGGTCACACACGACGGGTA" ?
## Result 0.905

More entries:
## Task For the sequence "ATCTCTAGGTAAAGATAGTTCAGTTAATGCAAAT" , what PBM binding z-score is on record?
## Result 0.536

## Task Look at this sequence and give its reported PBM binding z-score. "CCTTACGGGTCACGAGGTTCTAGCACGACGAGCG"
## Result 1.49

## Task Look at this sequence and give its reported PBM binding z-score. "TCTAGTTGGTCACGGAGGTCTCACACGACGGGTA"
## Result 0.721

## Task // lookup PBM binding z-score for "ATCTCTAGATAAAAGTTCAGTGAATCCCGAGGAT"
## Result 0.614

## Task Look at this sequence and give its reported PBM binding z-score. "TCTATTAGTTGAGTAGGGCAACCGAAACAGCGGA"
## Result 0.368

## Task Please report the recorded PBM binding z-score for "ACTATTAGTTAACTTAGGGCAACCGATACGACGC" .
## Result 0.837

---

system: PXR homodimer (NR concentration 270 nM); assay: PBM binding z-score (relative to random genomic background probes); higher = stronger binding; sequences stand for … in GC…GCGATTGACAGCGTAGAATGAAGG
Please mark condition met if the recorded PBM binding z-score is equal to or greater than 0.5, and condition not met if it falls below.

## Task Identify whether the reported PBM binding z-score of the following sequence is 0.5 or greater: "CCTACTGGGCCACGAAAGGTTATTGATTCAGTGA"
## Result condition not met

## Task Is PBM binding z-score at least 0.5? Consider "TTACCAAGGTGAGCTGAGGTCGTTTATCCAACTC"
## Result condition met

## Task Textbook exercise: given the entry "ATCTCTAGGTAACTAGTTCAGTGAAAGAGAGGAC" , state whether its PBM binding z-score is greater than or equal to 0.5.
## Result condition not met

## Task Does the reported PBM binding z-score for "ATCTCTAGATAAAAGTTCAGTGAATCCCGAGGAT" fall at or above the 0.5 mark?
## Result condition met

## Task Tell me whether PBM binding z-score is at least 0.5 here: "ATATGTAGGTTAAGGGTCATTGAGGTTGGTTCGC"
## Result condition met

***
## Task # check: PBM binding z-score of "TTACCGAGGTGAGCTGAGGTCGTTGATCCAACTC" is greater than or equal to 0.5
## Result condition not met

## Task Is reported PBM binding z-score greater than or equal to 0.5 here: "CCTTACGGGTCACTGACAGATTATAGCATTTGGA"
## Result condition not met

## Task Form field: PBM binding z-score at least 0.5? Entry: "CCTACTGGGCCATTCAGAGGTCATTTATCATATG"
## Result condition met

## Task Entry "TGAATTAGGTTATAAGATCAGGGAACGTTGCAAA" : is its PBM binding z-score no less than 0.5?
## Result condition not met

## Task Answer whether PBM binding z-score of "ACAGACAGATGAGTGAAGGTAACTCAGCTGGACG" is greater than or equal to 0.5.
## Result condition not met

---

system: PPARg homodimer (NR concentration 180 nM); assay: PBM binding z-score (relative to random genomic background probes); higher = stronger binding; sequences stand for … in GC…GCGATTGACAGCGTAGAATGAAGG
measured-metric: PBM binding z-score
API note: the answer field is a bare number with no unit suffix.

Example cases with answers are listed next.
## Task What PBM binding z-score value was documented for this sequence, "GCTGCTAGGTCAACTCATGGTCAGCTAAAGCTCG" ?
## Result 1.2

## Task What value of PBM binding z-score has been reported for the following sequence? "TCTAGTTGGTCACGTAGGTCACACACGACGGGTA"
## Result 2.46

## Task PBM binding z-score lookup needed for "CCTGCTAGGTCAGTGGTCAGCTAAAGCAGCTCGC" , thanks.
## Result 0.944

## Task I have this sequence here, "TTACCAATGTGAAAGGTCGTTGATGCACGCCTTG" , and I need its recorded PBM binding z-score.
## Result 1.33

## Task # lookup: PBM binding z-score of "ACTATTAGTTGAGACGAGGGCAACCGTTAGGTTG"
## Result 0.552

Others:
## Task Data request, read-out PBM binding z-score, for "ACTAGCAGGCGAAGTTTGGGTCACTCAAACAAAG"
## Result -0.0559

## Task Which PBM binding z-score value belongs to "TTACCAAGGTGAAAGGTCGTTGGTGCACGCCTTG" ?
## Result 2.46

## Task Item under review: "TCTAGCAGGCGAGAGGGTCACTCAAGAGGTACGG" . Reported PBM binding z-score?
## Result 0.125

## Task // lookup PBM binding z-score for "CGTCCAAGGTCATAGGAGGTAAGTGAAGACAGAT"
## Result 2.39

## Task Give its PBM binding z-score value. Item: "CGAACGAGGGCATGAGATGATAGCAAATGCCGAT"
## Result 0.685

## Task Fill in: PBM binding z-score of "CCTTACGGGTCACTGACAGGTTATTGCATTTGGA" is ___
## Result 2.74

## Task Entry "ATCTCTAGGTAAACAAGTTCAGTGAATGCCGAAC" has what PBM binding z-score?
## Result 1.19

---

PBM binding z-score by entry:
test system: LXRb:RXRa (NR concentration 270 nM, RXRa partner concentration 90 nM); assay: PBM binding z-score (relative to random genomic background probes); higher = stronger binding; sequences stand for … in GC…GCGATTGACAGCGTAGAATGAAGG
Answer with a number only.

Would you please look over these solved cases?
## Task For LXRb:RXRa (NR concentration 270 nM, RXRa partner concentration 90 nM), provide PBM binding z-score of "CAGCCTAGGTCATGGCCAGTATAGGAGGAACGTT" please.
## Result 1.92

## Task LXRb:RXRa (NR concentration 270 nM, RXRa partner concentration 90 nM) / PBM binding z-score / "GCTTGCAGATCAAGGTTAAGAAAGACTAAGCTAA" : value?
## Result 0.358

## Task Form entry - test system: LXRb:RXRa (NR concentration 270 nM, RXRa partner concentration 90 nM); read-out: PBM binding z-score; sequence: "TCATGTAGATCAGCAGGTTAAGAAAGCTGGCCAA"
## Result 0.259

## Task Reported PBM binding z-score for LXRb:RXRa (NR concentration 270 nM, RXRa partner concentration 90 nM), given "CCGACTGGGGCAAGGTTACCATGACGCACAGCCA" ?
## Result 0.445

## Task Request body: readout PBM binding z-score, system LXRb:RXRa (NR concentration 270 nM, RXRa partner concentration 90 nM), query "GCAGACAGTTGAAACGCAGGTAACTCAGGGTGGC" . Return the value.
## Result -0.476

Now look at this entry.
## Task Write down the reported PBM binding z-score of "AGTATGAGGTTATACGTAGATCAGGGAAGAAAGT" , test system: LXRb:RXRa (NR concentration 270 nM, RXRa partner concentration 90 nM).
## Result 1.56
